tested on: Inhibin beta A chain (activin A); assay: INHBA (activin A) binders on microarrays, primary screen, biochemical, small-molecule microarray, 635 nm fluorescence scan (AID 1107); settings: small-molecule microarray binding, higher = more signal;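 note: mouse activin A protein probed at 4.33 µg/mL on printed slides; score merges bound-protein fluorescence near 667 nm with spot signal-to-noise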
Binary call on composite z-score: met from -0.1 upward, not met beneath that.

>>> discrete_label("C=CC[C@@H]1C=C[C@H](ON=C(C)CCC(=O)OC[C@H]2O[C@H](C#Cc3ccccc3)C=C[C@@H]2Oc2ccc(C)cc2)[C@@H](CO)O1")
"not met"
>>> discrete_label("Cc1cc2c(nc1C)CCCCN2CC(C)ON=C[C@@H](C)[C@H](OCc1ccccc1)C(C)C (stereo partly specified)")
"met"
>>> discrete_label("CCc1cc2c(nc1CC)CCN(CCC(C)=NOC[C@H]1O[C@H](c3ccccc3)C=C[C@@H]1Oc1ccc(OC)cc1)C2")
"met"
>>> discrete_label("COc1cccc([C@H]2Oc3ccc(OC)cc3C(=NOC[C@@H](O)COCc3ccco3)[C@@H]2O)c1")
"met"
>>> discrete_label("CC(C)(C)N1C(=O)[C@H]2[C@H]3[C@H](O)[C@H](O)CC(=O)[C@H]3CC[C@H]2C1=O")
"not met"
>>> discrete_label("CCOC(=O)[C@H](CC(C)C)NC(=O)CCC1CC(OC(=O)NCc2ccc3c(c2)OCO3)CC2(CCCC(COC(=O)NCc3cccc(C(F)(F)F)c3)O2)O1 (stereo partly specified)")
"met"
>>> discrete_label("CCCCC#C[C@@H]1C=C[C@H](OC(C)=O)[C@@H](COC(C)=O)O1")
"met"
>>> discrete_label("COc1ccc(O[C@H]2C=C[C@@H](c3ccccc3)O[C@@H]2CON=C(C)C)cc1")
"met"
>>> discrete_label("COC(=O)CC=C[C@H](C)[C@@H](OCc1cccc(Br)c1)[C@@H](C)[C@H](OC)C1CCCCC1")
"met"
>>> discrete_label("CO[C@@H]1COC(=O)[C@@H]2CCCN2C(=O)[C@@H](C)COC(=O)CC=C[C@H]1C")
"not met"
>>> discrete_label("CO[C@H]1COC(=O)[C@H](C)NC(=O)[C@@H](C)COC(=O)[C@H]2CCCN2C(=O)CC=C[C@H]1C")
"not met"

---

test: anti-His antibody binders, primary screen, artefact control for SMM control protein annotation, biochemical, small-molecule microarray, 635 nm fluorescence (AID 1128); conditions: anti-His Alexa647 antibody binding, higher = more signal;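 note: score merges feature fluorescence with signal-to-noise for each printed compound spot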
Ranges used to classify composite z-score: class 1: < -0.3; class 2: ≥ -0.3 and < 0.5; class 3: ≥ 0.5

>>> discrete_label("COc1ccc(O[C@H]2C=C[C@@H](c3ccccc3)O[C@@H]2CON=C(C)C)cc1")
"class 1"
>>> discrete_label("O=c1n(Cc2cc3c(cc2Cl)OCO3)c(=O)n2n1CC[C@@H]1C(=NOCc3ccccc3)[C@H]3O[C@H]3[C@@H](O)[C@@H]12")
"class 3"
>>> discrete_label("COC(=O)CC=C[C@@H](C)[C@H](OCc1cccc(-c2ccccc2)c1)C1CCCCC1")
"class 1"
>>> discrete_label("COC(=O)CC=C[C@@H](C)[C@@H](C=NOC[C@H]1O[C@H](c2ccccc2)C=C[C@@H]1Oc1ccc(OC)cc1)NS(=O)(=O)c1ccc(C)cc1")
"class 1"
>>> discrete_label("O=C1C[C@@H](O)[C@@H](O)[C@@H]2[C@@H]3C(=O)N(C[C@@H]4CCCO4)C(=O)[C@@H]3CC[C@H]12")
"class 2"
>>> discrete_label("Cc1ccc(S(=O)(=O)NC(CCc2ccccc2)CC(=O)C(C)(C)C)cc1 (stereo not drawn)")
"class 3"
>>> discrete_label("COC(=O)CC=C[C@@H](C)[C@@H](C=NO[C@@H](C)c1cc(-c2c(C)cc(C)cc2C)no1)NS(=O)(=O)c1ccc(C)cc1")
"class 1"
>>> discrete_label("CCC(=O)[C@@]1(O)C(=O)N2C(=C3C(=O)OCC[C@@H]31)N(Cc1ccccc1)C(C)=C(C(=O)OC)[C@H]2c1ccccc1")
"class 2"
>>> discrete_label("CCOC(=O)[C@H](Cc1ccccc1)NC(=O)CCC1CC(OC(=O)NCCc2ccc(F)cc2)CC2(CCCC(COC(=O)NCCOC)O2)O1 (stereo partly drawn)")
"class 2"
>>> discrete_label("COc1ccc(O[C@H]2C=C[C@@H](c3ccccc3)O[C@@H]2CON=C(C)CCC(=O)OC[C@H]2O[C@H](c3ccccc3)C=C[C@@H]2Oc2ccc(OC)cc2)cc1")
"class 3"
>>> discrete_label("CCN1C(=O)[C@H]2[C@H]3[C@H](O)[C@H](O)CC(=O)[C@H]3CC[C@H]2C1=O")
"class 2"
>>> discrete_label("Cc1cc2c(nc1C)CCCN2CC(O)CN1CCCc2nc(C)c(C)cc21")
"class 3"
